tested on: NOS-1 (Osteosarcoma); test: Bliss excess, mean over the matrix (fraction); higher = more synergy
Bliss excess: recorded values

# molecule, Bliss excess
records = [
    ("CC1(C)CCC(CN2CCN(c3ccc(C(=O)NS(=O)(=O)c4ccc(NCC5CCOCC5)c([N+](=O)[O-])c4)c(Oc4cnc5[nH]ccc5c4)c3)CC2)=C(c2ccc(Cl)cc2)C1 [Venetoclax] + CN(C)CCCOc1ccc(-c2ccc3ncc4c(c3c2)n(C2CCOCC2)c(=O)n4C)cn1 [AZD0156] (first compound max 1 µM, 7x7, partner max 1 µM)", -0.0358),
    ("COc1cc2c(cc1OCCCCCOc1cc3c(cc1OC)C(=O)N1C=C(C)C[C@H]1C=N3)N=C[C@@H]1CC(C)=CN1C2=O [SG3199] + O=C(c1cc(Cc2n[nH]c(=O)c3ccccc23)ccc1F)N1CCN(C(=O)C2CC2)CC1 [Olaparib] (first compound max 0.001 µM, 7x7, partner max 10 µM)", -0.0275),
    ("Cn1cnc2c(F)c(Nc3ccc(Br)cc3Cl)c(C(=O)NOCCO)cc21 [Selumetinib] + C=CCn1c(=O)c2cnc(Nc3ccc(N4CCN(C)CC4)cc3)nc2n1-c1cccc(C(C)(C)O)n1 [AZD1775] (first compound max 10 µM, partner max 1 µM)", 0.0355),
]

* * *

test system: HO-1-N-1 (Oral Cavity Carcinoma); experiment: combination Emax (second highest fraction inhibited in the dose matrix, 72 h); higher = more inhibition; extreme values may be limits of the assay
measuredEndpoint: combination Emax

# molecule, assayTarget, observed
rows = [
    ("Cc1cc2ncnn2cc1Nc1ncc2c(n1)n(C1CCOCC1)c(=O)n2C [AZD7648] + COc1cc([C@@H]2c3cc4c(cc3[C@@H](O[C@@H]3O[C@@H]5CO[C@@H](C)O[C@H]5[C@H](O)[C@H]3O)[C@H]3COC(=O)[C@H]23)OCO4)cc(OC)c1O [Etoposide] (first compound max 10 µM, 7x7, partner max 10 µM)", "HO-1-N-1 (Oral Cavity Carcinoma)", 0.987),
    ("Cc1cc2ncnn2cc1Nc1ncc2c(n1)n(C1CCOCC1)c(=O)n2C [AZD7648] + CCN(CCO)CCCOc1ccc2c(Nc3cc(CC(=O)Nc4cccc(F)c4)[nH]n3)ncnc2c1 [AZD2811] (first compound max 10 µM, 7x7, partner max 1 µM)", "HO-1-N-1 (Oral Cavity Carcinoma)", 0.826),
    ("Cc1c2c(nn1C)CSCc1cc(n(C)n1)CSc1cc(c3ccccc3c1)OCCCc1c(C(=O)O)n(C)c3c-2c(Cl)ccc13 [AZD5991] + CC(=O)O[C@H]1C(=O)[C@@]2(C)[C@H]([C@H](OC(=O)c3ccccc3)[C@]3(O)C[C@H](OC(=O)[C@H](O)[C@@H](NC(=O)c4ccccc4)c4ccccc4)C(C)=C1C3(C)C)[C@]1(OC(C)=O)CO[C@@H]1C[C@@H]2O [Paclitaxel] (first compound max 1 µM, 7x7, partner max 3 µM)", "HO-1-N-1 (Oral Cavity Carcinoma)", 1),
    ("Cc1cc2ncnn2cc1Nc1ncc2c(n1)n(C1CCOCC1)c(=O)n2C [AZD7648] + CN(C)CCCOc1ccc(-c2ccc3ncc4c(c3c2)n(C2CCOCC2)c(=O)n4C)cn1 [AZD0156] (first compound max 10 µM, 7x7, partner max 1 µM)", "HO-1-N-1 (Oral Cavity Carcinoma)", 0.3),
    ("Cc1c2c(nn1C)CSCc1cc(n(C)n1)CSc1cc(c3ccccc3c1)OCCCc1c(C(=O)O)n(C)c3c-2c(Cl)ccc13 [AZD5991] + Cc1cc2ncnn2cc1Nc1ncc2c(n1)n(C1CCOCC1)c(=O)n2C [AZD7648] (first compound max 1 µM, 7x7, partner max 10 µM)", "HO-1-N-1 (Oral Cavity Carcinoma)", 0.794),
    ("CCN(CCO)CCCOc1ccc2c(Nc3cc(CC(=O)Nc4cccc(F)c4)[nH]n3)ncnc2c1 [AZD2811] + C=CCn1c(=O)c2cnc(Nc3ccc(N4CCN(C)CC4)cc3)nc2n1-c1cccc(C(C)(C)O)n1 [AZD1775] (first compound max 1 µM, partner max 1 µM)", "HO-1-N-1 (Oral Cavity Carcinoma)", 0.848),
    ("CN(C)CCCOc1ccc(-c2ccc3ncc4c(c3c2)n(C2CCOCC2)c(=O)n4C)cn1 [AZD0156] + C[C@@H]1COCCN1C2=NC(=NC(=C2)C3(CC3)[S@](=N)(=O)C)C4=C5C=CNC5=NC=C4 [AZD6738] (first compound max 1 µM, 7x7, partner max 10 µM)", "HO-1-N-1 (Oral Cavity Carcinoma)", 0.809),
]

* * *

system: TE-9 (Esophageal Squamous Cell Carcinoma); test: Bliss excess, mean over the matrix (fraction); higher = more synergy
We use -0.02 as the dividing line for Bliss excess: on or above the line is true (1), below is false (0).

# molecule, classAssignment
records = [
    ("COc1cc2c(cc1OCCCCCOc1cc3c(cc1OC)C(=O)N1C=C(C)C[C@H]1C=N3)N=C[C@@H]1CC(C)=CN1C2=O [SG3199] + O=C(c1cc(Cc2n[nH]c(=O)c3ccccc23)ccc1F)N1CCN(C(=O)C2CC2)CC1 [Olaparib] (first compound max 0.001 µM, 7x7, partner max 10 µM)", "false (0)"),
    ("Cc1c2c(nn1C)CSCc1cc(n(C)n1)CSc1cc(c3ccccc3c1)OCCCc1c(C(=O)O)n(C)c3c-2c(Cl)ccc13 [AZD5991] + C[C@@H](Nc1cc(F)cc(F)c1)c1cc(C(=O)N(C)C)cc2c(=O)cc(N3CCOCC3)oc12 [AZD8186] (first compound max 1 µM, 7x7, partner max 3 µM)", "false (0)"),
    ("N#Cc1cnc(Nc2cc(NC[C@H]3CNCCO3)c(C(F)(F)F)cn2)cn1 [SRA737] + CCc1c2c(nc3ccc(O)cc13)-c1cc3c(c(=O)n1C2)COC(=O)[C@]3(O)CC [SN-38] (first compound max 10 µM, 7x7, partner max 0.3 µM)", "true (1)"),
    ("CCN(CCO)CCCOc1ccc2c(Nc3cc(CC(=O)Nc4cccc(F)c4)[nH]n3)ncnc2c1 [AZD2811] + O=C(c1cc(Cc2n[nH]c(=O)c3ccccc23)ccc1F)N1CCN(C(=O)C2CC2)CC1 [Olaparib] (first compound max 1 µM, 7x7, partner max 10 µM)", "true (1)"),
    ("CC1(C)CCC(CN2CCN(c3ccc(C(=O)NS(=O)(=O)c4ccc(NCC5CCOCC5)c([N+](=O)[O-])c4)c(Oc4cnc5[nH]ccc5c4)c3)CC2)=C(c2ccc(Cl)cc2)C1 [Venetoclax] + CS(=O)(=O)CCNCc1ccc(-c2ccc3ncnc(Nc4ccc(OCc5cccc(F)c5)c(Cl)c4)c3c2)o1 [Lapatinib] (first compound max 1 µM, 7x7, partner max 10 µM)", "false (0)"),
    ("CCc1c2c(nc3ccc(O)cc13)-c1cc3c(c(=O)n1C2)COC(=O)[C@]3(O)CC [SN-38] + O=C(c1cc(Cc2n[nH]c(=O)c3ccccc23)ccc1F)N1CCN(C(=O)C2CC2)CC1 [Olaparib] (first compound max 0.3 µM, 7x7, partner max 10 µM)", "true (1)"),
    ("Cc1c2c(nn1C)CSCc1cc(n(C)n1)CSc1cc(c3ccccc3c1)OCCCc1c(C(=O)O)n(C)c3c-2c(Cl)ccc13 [AZD5991] + Cc1cc2ncnn2cc1Nc1ncc2c(n1)n(C1CCOCC1)c(=O)n2C [AZD7648] (first compound max 1 µM, 7x7, partner max 10 µM)", "true (1)"),
]

* * *

tested on: Hs-578-T (Breast Carcinoma); assay: combination Emax (second highest fraction inhibited in the dose matrix, 72 h); higher = more inhibition; extreme values may be limits of the assay
measuredEndpoint: combination Emax

# compound, assayTarget, observed
data = [
    ("Cc1c2c(nn1C)CSCc1cc(n(C)n1)CSc1cc(c3ccccc3c1)OCCCc1c(C(=O)O)n(C)c3c-2c(Cl)ccc13 [AZD5991] + Nc1ccn([C@@H]2O[C@H](CO)[C@@H](O)C2(F)F)c(=O)n1 [Gemcitabine] (first compound max 1 µM, 7x7, partner max 0.3 µM)", "Hs-578-T (Breast Carcinoma)", 0.663),
    ("CC1(C)CCC(CN2CCN(c3ccc(C(=O)NS(=O)(=O)c4ccc(NCC5CCOCC5)c([N+](=O)[O-])c4)c(Oc4cnc5[nH]ccc5c4)c3)CC2)=C(c2ccc(Cl)cc2)C1 [Venetoclax] + CCN(CCO)CCCOc1ccc2c(Nc3cc(CC(=O)Nc4cccc(F)c4)[nH]n3)ncnc2c1 [AZD2811] (first compound max 1 µM, 7x7, partner max 1 µM)", "Hs-578-T (Breast Carcinoma)", 0.802),
    ("N#Cc1cnc(Nc2cc(NC[C@H]3CNCCO3)c(C(F)(F)F)cn2)cn1 [SRA737] + CCc1c2c(nc3ccc(O)cc13)-c1cc3c(c(=O)n1C2)COC(=O)[C@]3(O)CC [SN-38] (first compound max 10 µM, 7x7, partner max 0.3 µM)", "Hs-578-T (Breast Carcinoma)", 0.804),
]
